# Protocol Text: STM_H9_OrnithineISnorm_perc: Stemina devTOX quickPredict H9 human embryonic stem cell (hESC)-based Assay for Ornithine (ORN) Metabolite Biomarker, Normalized (AID 2283712);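 note: ornithine released into spent medium during last day measured by mass spectrometry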
The source made the active and inactive calls. Rule for the calls: active = hit-call score of the fitted dose curve at least 0.9, where 1 is the maximum; inactive = score below 0.9.
Respond only with the outcome that fits, drawn from active, inactive

# Molecule, Answer Label
rows = [
    ("NC(=O)Cn1c(=O)cc(CCN2CCN(c3nccc4sccc34)CC2)c2ccc(F)cc21", "active"),
    ("O=c1c(O)c(-c2ccc(O)c(O)c2)oc2cc(O)cc(O)c12", "inactive"),
    ("Cc1cccc(Nc2cc(Cl)nc(SCC(=O)O)n2)c1C", "inactive"),
]

Now let's try a different one.
Ask | Please share the test call associated with `COCCOCCOC` .
Reply | inactive

---

# Protocol Text: CCTE_Shafer_MEA_acute_burst_duration_mean: CCTE's Neural Acute Assay for Mean Burst Duration, Shafer Lab (AID 2284014);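 note: hits are decreases in mean burst duration relative to DMSO controls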
Activity calls are given as the source filed them. How the source made its calls: active means hit-call score of the fitted dose curve at least 0.9, where 1 is the maximum; inactive means score below 0.9.
Respond only with the outcome that fits, drawn from active, inactive

Past entries and their recorded results:
# Smiles Record, Answer Label
measured = [
    ("O=C(O)CCCCC(=O)O", "inactive"),
    ("CCOC(=O)C(C)(C)Oc1ccc(Cl)cc1", "inactive"),
    ("CCCc1cc(=O)[nH]c(=S)[nH]1", "inactive"),
    ("CNCc1cc(F)ccc1Oc1ccc(Cl)c(Cl)c1", "active"),
    ("Clc1cc(Cl)c(Cl)cc1Cl", "inactive"),
    ("C[Si]1(C)O[Si](C)(C)O[Si](C)(C)O[Si](C)(C)O1", "inactive"),
    ("C=CCOC(=O)c1ccccc1C(=O)OCC=C", "inactive"),
    ("FC(F)(F)C(F)(F)C(F)(F)C(F)(F)C(F)(F)C(F)(F)CCI", "inactive"),
    ("COc1ccc2c(c1)c(CC(=O)O)c(C)n2C(=O)c1ccc(Cl)cc1", "inactive"),
    ("c1cc(-c2ccncc2)ccn1", "inactive"),
]

Ask | Please share the test call associated with `C=CCc1ccc(O)c(OC)c1` .
Reply | inactive

Ask | Please share the test call associated with `NCC1(Cc2noc(=O)[nH]2)CCCCC1` .
Reply | inactive

Ask | Please share the test call associated with `Cc1ccc2ncccc2c1` .
Reply | inactive

Ask | Please share the test call associated with `CC(=O)Oc1ccccc1C(=O)O` .
Reply | inactive

Ask | Please share the test call associated with `Cc1ccc(C)c(O)c1C` .
Reply | inactive

Ask | Please share the test call associated with `NS(=O)(=O)c1cc2c(cc1Cl)NCNS2(=O)=O` .
Reply | inactive

---

# System Under Test: human Serotonin, 5-Hydroxytryptamine Receptor 7 (5HT7), HTR7 (gene 3363) (UniProt P34969)
# Sequence (P34969 whole entry, looked up): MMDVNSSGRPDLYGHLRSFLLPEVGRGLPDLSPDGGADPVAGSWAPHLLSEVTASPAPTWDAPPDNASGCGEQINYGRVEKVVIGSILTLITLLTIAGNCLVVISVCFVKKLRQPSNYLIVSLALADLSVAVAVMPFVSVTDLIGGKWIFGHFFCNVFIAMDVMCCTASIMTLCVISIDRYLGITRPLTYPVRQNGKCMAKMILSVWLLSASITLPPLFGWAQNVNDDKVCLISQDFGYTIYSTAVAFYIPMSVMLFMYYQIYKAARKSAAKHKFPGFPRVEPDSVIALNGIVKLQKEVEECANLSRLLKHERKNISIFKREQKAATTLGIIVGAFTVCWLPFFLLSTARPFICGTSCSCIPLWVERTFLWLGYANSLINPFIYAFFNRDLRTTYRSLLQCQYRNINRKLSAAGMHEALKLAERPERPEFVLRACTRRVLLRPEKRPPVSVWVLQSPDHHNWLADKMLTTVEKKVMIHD
# Protocol Text: NVS_GPCR_h5HT7: NovaScreen (NVS) G Protein-Coupled Receptor Assay for human Serotonin, 5-Hydroxytryptamine Receptor 7 (5HT7) (AID 2283255);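 note: hits reduce specific radioligand binding relative to DMSO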
Records with an inconclusive call do not appear. The source made the active and inactive calls. The calls were made as follows: active = hit-call score of the fitted dose curve at least 0.9, where 1 is the maximum; inconclusive = response in the unintended direction; inactive = score below 0.9.
Measured Metric: AC50

Ask | Which AC50 value is on record for `NC(=O)Cn1c(=O)cc(CCN2CCN(c3nccc4sccc34)CC2)c2ccc(F)cc21` ?
Reply | 0.0155 µM (active)

Ask | Which AC50 value is on record for `CN1CCN(Cc2cc(-c3ccc4[nH]c(=O)oc4c3)co2)[C@@H](c2ccc(F)cc2)C1` ?
Reply | 15.6 µM (active)

Ask | Which AC50 value is on record for `CC(C)c1ccc(C(=O)N=C(N)N)cc1S(C)(=O)=O` ?
Reply | 8.17 µM (active)

---

# Read-out: Cytochrome P450 7A1 (Homo sapiens) (UniProt P22680)
# Protocol Text: LTEA_HepaRG_CYP7A1: Life Technologies and Expression Analysis (LTEA) Assay for Cytochrome P450 7A1 (CYP7A1) using HepaRG (AID 2283496)
# Settings: mRNA level, 48 h; actives raise or lower the signal
# Description: LTEA_HepaRG is a cell based, multiplexed-readout assay that uses HepaRG, a human liver cell line, with measurements taken at 48 hours after chemical dosing on a 96-well plate.LTEA_HepaRG_CYP7A1 is one of 102 assay component(s) measured in the LTEA HepaRG cell culture assay. It is a marker of NR mediated metabolism.Data from the assay component LTEA_HepaRG_CYP7A1 was analyzed into 1 endpoint. […]
Activity calls are given as the source filed them. The calls were made as follows: active = hit-call score of the fitted dose curve at least 0.9, where 1 is the maximum; inactive = score below 0.9.
Respond only with the outcome that fits, drawn from y (active), n (inactive)

Past entries and their recorded results:
# Compound, Answer Label
data = [
    ("CC1=C(/C=C/C(C)=C/C=C/C(C)=C/CO)C(C)(C)CCC1", "y"),
    ("CCOC(=O)C(C)(C)Oc1ccc(Cl)cc1", "n"),
    ("Oc1ccc2c(c1)OC[C@@H](N1CCC(O)(c3ccc(F)cc3)CC1)[C@H]2O", "n"),
    ("O=c1c(O)c(-c2ccc(O)c(O)c2)oc2cc(O)cc(O)c12", "n"),
    ("CCCc1cc(=O)[nH]c(=S)[nH]1", "n"),
]

Ask | Please share the test call associated with `CCCCCCCCCCCCCCCC` .
Reply | n

Ask | Please share the test call associated with `C=CCOC(=O)c1ccccc1C(=O)OCC=C` .
Reply | n

Ask | Please share the test call associated with `Cc1cc(NC(=O)C(=O)O)cc(C)c1Oc1ccc(O)c2c1CCC2` .
Reply | y

---

# Protocol Text: Tanguay_ZF_120hpf_PE_legacy: (Legacy) Oregon State University Tanguay Lab 120 Hour Post-fertilization zebrafish Assay for Pericardial Edema (AID 2283640)
Records with an inconclusive call do not appear. Activity calls are given as the source filed them. How the source made its calls: active means hit-call score of the fitted dose curve at least 0.9, where 1 is the maximum; inconclusive means response in the unintended direction; inactive means score below 0.9.
Respond only with the outcome that fits, drawn from YES (active), NO (inactive)

Past entries and their recorded results:
# Molecule, Answer Label
data = [
    ("C=CCOC(=O)c1ccccc1C(=O)OCC=C", "YES"),
    ("Cc1ccc(C)c(O)c1C", "NO"),
    ("CCNc1cccc(C)c1", "NO"),
]

Ask | Please share the test call associated with `CC(C)c1ccc(C(=O)N=C(N)N)cc1S(C)(=O)=O` .
Reply | NO

Ask | Please share the test call associated with `O=C(O)CCCCC(=O)O` .
Reply | NO

Ask | Please share the test call associated with `COC(=O)c1ccc(O)cc1` .
Reply | NO

Ask | Please share the test call associated with `CCOc1ccc2c(c1)C(C)=CC(C)(C)N2` .
Reply | NO

Ask | Please share the test call associated with `Cc1cc(=O)[nH]c(=S)[nH]1` .
Reply | NO

---

# Protocol Text: ATG_Sox_CIS: Attagene CIS-FACTORIAL HepG2 Assay for human SRY-box transcription factor (SOX) (AID 2282960)
# Settings: HepG2 Attagene cis-factorial SOX reporter, mRNA; actives raise or lower the signal
Active and inactive are the calls of the source. Rule for the calls: active = hit-call score of the fitted dose curve at least 0.9, where 1 is the maximum; inactive = score below 0.9.
Respond only with the outcome that fits, drawn from active, inactive

Ask | Please share the test call associated with `COc1ccc(C)cc1N` .
Reply | inactive

Ask | Please share the test call associated with `CC1(C)NC(=O)NC1=O` .
Reply | inactive

Ask | Please share the test call associated with `COc1ccc(S(=O)(=O)N2C(=O)[C@@](c3ccccc3OC)(N3C[C@H](O)C[C@H]3C(=O)N(C)C)c3cc(Cl)ccc32)c(OC)c1` .
Reply | active

Ask | Please share the test call associated with `C=CCc1ccc(O)c(OC)c1` .
Reply | inactive

Ask | Please share the test call associated with `CCCCCCCCCCCC(=O)OC` .
Reply | inactive

Ask | Please share the test call associated with CCCCC(CC)COC(=O)CC(C(=O)OCC(CC)CCCC)S(=O)(=O)O (stereo not given) .
Reply | inactive

---

# Protocol Text: BSK_3C_Proliferation: Cell Proliferation Assessment in the BioMAP Diversity Plus: 3C Assay (AID 2283006)
# Settings: primary human endothelial cells (HUVEC)
Calls of active or inactive are those of the source. Rule for the calls: active = hit-call score of the fitted dose curve at least 0.9, where 1 is the maximum; inactive = score below 0.9.
Respond only with the outcome that fits, drawn from active, inactive

# Compound, Answer Label
measured = [
    ("Cc1ccc(C)c(C)c1", "inactive"),
    ("O=C(N[C@@H](Cc1ccccc1)[C@@H](O)C(=O)N1C[C@@H](O)[C@@H](O)C1)c1cc2cc(Cl)ccc2[nH]1", "inactive"),
]

Ask | Please share the test call associated with `CCCCCCCC=O` .
Reply | inactive

Ask | Please share the test call associated with `NC(=O)Cn1c(=O)cc(CCN2CCN(c3nccc4sccc34)CC2)c2ccc(F)cc21` .
Reply | active

Ask | Please share the test call associated with `CCCCCCCCCCCCCCCC` .
Reply | inactive

Ask | Please share the test call associated with `O=[N+]([O-])C(CO)(CO)CO` .
Reply | inactive

Ask | Please share the test call associated with `COC(=O)c1ccc(O)cc1` .
Reply | inactive

Ask | Please share the test call associated with `CN1CCN(Cc2cc(-c3ccc4[nH]c(=O)oc4c3)co2)[C@@H](c2ccc(F)cc2)C1` .
Reply | active
